Source listed as patent USRE49099.

- assayedTarget: T1, human activated protein C (human, UniProt P04070 43-197; P04070 212-461)
- T1 construct: also called human aPC; human APC
- protocolDetails: SPR (Biacore), 1:1 binding model
I'd be grateful if you could share measured koff for these entries.
Answers are plain numbers, in s⁻¹.

| binder | koff, s⁻¹ |
| --- | --- |
| Hu1573-14 (antibody, V domains shown, Humanized IgG, human gamma 1 / kappa constant regions by vectors pCP-hCg1 and pCP-hck; also called H1573VH.1E + H1573Vk.2B) VH: EVQLVESGGGLVQPGGSLRLSCAASGFTFSNYYLNWVRQAPGKGLEWVADIRLKSNNYEKHYAESVKGRFTISRDDSKNSVYLQMNSLKTEDTAVYYCIREGDYFDYWGQGTTVTVSS VL: DIVMTQTPLSLSVTPGQPASISCRASESVDSFGATFMHWYLQKPGQPPQLLIYLASNLESGVPDRFSGSGSRTDFTLKISRVEAEDVGVYYCQQNNEDPYTFGQGTKLEIKR | 0.00856 |
| Hu1573-17 (antibody, V domains shown, Humanized IgG, human gamma 1 / kappa constant regions by vectors pCP-hCg1 and pCP-hck; also called H1573VH.1F + H1573Vk.2B) VH: EVQLVESGGGLVQPGGSLRLSCAASGFTFSNYYLNWVRQAPGKGLEWVADIRLKSNNYEKHYAESVKGRFTISRDDSKSSVYLQMNSLKTEDTAVYYCIREGDYFDYWGQGTTVTVSS VL: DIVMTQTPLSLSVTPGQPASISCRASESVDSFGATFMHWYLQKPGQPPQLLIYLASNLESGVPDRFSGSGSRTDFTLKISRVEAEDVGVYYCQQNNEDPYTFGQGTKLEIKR | 0.00833 |
| Hu1573-13 (antibody, V domains shown, Humanized IgG, human gamma 1 / kappa constant regions by vectors pCP-hCg1 and pCP-hck; also called H1573VH.1E + H1573Vk.2A) VH: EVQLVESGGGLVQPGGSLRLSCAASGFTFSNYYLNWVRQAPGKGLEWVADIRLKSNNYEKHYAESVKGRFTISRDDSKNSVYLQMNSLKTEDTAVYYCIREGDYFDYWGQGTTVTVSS VL: DIVLTQTPLSLSVTPGQPASISCRASESVDSFGATFMHWYLQKPGQPPQLLIYLASNLESGVPDRFSGSGSGTDFTLKISRVEAEDVGVYYCQQNNEDPYTFGQGTKLEIKR | 0.00655 |
| Hu1573-2 (antibody, V domains shown, Humanized IgG, human gamma 1 / kappa constant regions by vectors pCP-hCg1 and pCP-hck; also called H1573VH.1A + H1573Vk.2C) VH: EVQLVESGGGLVQPGGSLRLSCAASGFTFSNYYLNWVRQAPGKGLEWVGDIRLKSNNYEKHYAESVKGRFTISRDDSKNSLYLQMNSLKTEDTAVYYCIREGDYFDYWGQGTTVTVSS VL: DIVLTQTPLSLSVTPGQPASISCRASESVDSFGATFMHWYLQKPGQPPQLLIYLASNLESGVPDRFSGSGSRTDFTLKISRVEAEDVGVYYCQQNNEDPYTFGQGTKLEIKR | 0.00624 |

// switching to the query binder
Prompt: Hello, please tell me recorded koff for this one: Hu1573-9 (antibody, V domains shown, Humanized IgG, human gamma 1 / kappa constant regions by vectors pCP-hCg1 and pCP-hck; also called H1573VH.1D + H1573Vk.2) VH: EVQLVESGGGLVQPGGSLRLSCAASGFTFSNYYLNWVRQAPGKGLEWVGDIRLKSNNYEKHYAESVKGRFTISRDDSKSSLYLQMNSLKTEDTAVYYCIREGDYFDYWGQGTTVTVSS VL: DIVMTQTPLSLSVTPGQPASISCRASESVDSFGATFMHWYLQKPGQPPQLLIYLASNLESGVPDRFSGSGSGTDFTLKISRVEAEDVGVYYCQQNNEDPYTFGQGTKLEIKR
Completion: 0.00815
